system: AncSZ; test: phosphorylation enrichment, bacterial display (enrichment ratio); higher = better substrate or ligand; peptides without Tyr show the background;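 further: 11-residue human phosphosite peptides and single-mutation variants displayed on the E. coli surface, counted by deep sequencing, each peptide's frequency after selection divided by its frequency in the unselected input library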;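 further: frequency after pTyr selection over input frequency; kinase dosed for 20-30% of maximal phosphorylation in three min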
Recorded phosphorylation enrichment for the following sequences
Please respond with just the number, no unit label.

Some solved entries appear below for comparison.
TISPFYCQSLF [CRYAA_Y48_R49C_YF] | 1.05
RMDGTYACSYT [FLNB_Y704] | 0.934
RKMSSYAFFVQ [HMGB1_Y16_G11R] | 1.01
HVKHNYECLVF [XRCC5_Y416_I412V_YF] | 1.23
NRKGKYFNVER [ANAPC4_Y469] | 0.478

Value lookup for phosphorylation enrichment; key = ADRARYSAFGG [RBM4_Y361]
0.5

Value lookup for phosphorylation enrichment; key = FRAVKYLQMVG [AVPR2_Y117_C112Y_YF]
0.889

Value lookup for phosphorylation enrichment; key = ELQDDYEDTME [SLC4A1_Y8_M11T]
1.47

Value lookup for phosphorylation enrichment; key = LIDGFYRLTED [JAK2_Y373_A377E_YF]
1.31

Value lookup for phosphorylation enrichment; key = LRTAVYHEILI [CREBBP_Y1450]
3.59

Value lookup for phosphorylation enrichment; key = MEKEKYVSFIS [JMJD1C_Y596_YF]
0.833

Value lookup for phosphorylation enrichment; key = EQDRAYLEGTC [HLA-C_Y183_L180D]
1.1

Value lookup for phosphorylation enrichment; key = LLIMEYAKYGS [RET_Y806_V804M]
1.39

Value lookup for phosphorylation enrichment; key = EIEFLYNENTV [IARS1_Y680]
1.35

---

system: Fer (mouse); experiment: phosphorylation enrichment, bacterial display (enrichment ratio); higher = better substrate or ligand; peptides without Tyr show the background
Recorded phosphorylation enrichment for the following sequences
Please respond with just the number, no unit label.

Some solved entries appear below for comparison.
PGPPGYCDSSH [COL12A1_Y3043_Q3048H] | 0.542
CPPKVYELMIA [ABL2_Y515_R519I] | 7.5
LGRTVYADCLA [ABCA4_Y2063_L2060R] | 1.4

Value lookup for phosphorylation enrichment; key = VKYLGYPPPEI [KDR_Y357_A352V]
0.37

Value lookup for phosphorylation enrichment; key = NMSRIYSTTKV [ACE_Y151_A154T]
0.319

Value lookup for phosphorylation enrichment; key = STSKTYVISQT [RBBP6_Y87_R91Q]
0.328

Value lookup for phosphorylation enrichment; key = VEDQYYRVDCY [FHL1_Y208_C209R]
0.598

Value lookup for phosphorylation enrichment; key = GDSVQYNRTTD [MLPH_Y454_P451S]
0.457

---

biological target: EPHB2 (UniProt P29323); assay: phosphorylation enrichment, bacterial display (enrichment ratio); higher = better substrate or ligand; peptides without Tyr show the background
Sequence (P29323 whole entry, looked up): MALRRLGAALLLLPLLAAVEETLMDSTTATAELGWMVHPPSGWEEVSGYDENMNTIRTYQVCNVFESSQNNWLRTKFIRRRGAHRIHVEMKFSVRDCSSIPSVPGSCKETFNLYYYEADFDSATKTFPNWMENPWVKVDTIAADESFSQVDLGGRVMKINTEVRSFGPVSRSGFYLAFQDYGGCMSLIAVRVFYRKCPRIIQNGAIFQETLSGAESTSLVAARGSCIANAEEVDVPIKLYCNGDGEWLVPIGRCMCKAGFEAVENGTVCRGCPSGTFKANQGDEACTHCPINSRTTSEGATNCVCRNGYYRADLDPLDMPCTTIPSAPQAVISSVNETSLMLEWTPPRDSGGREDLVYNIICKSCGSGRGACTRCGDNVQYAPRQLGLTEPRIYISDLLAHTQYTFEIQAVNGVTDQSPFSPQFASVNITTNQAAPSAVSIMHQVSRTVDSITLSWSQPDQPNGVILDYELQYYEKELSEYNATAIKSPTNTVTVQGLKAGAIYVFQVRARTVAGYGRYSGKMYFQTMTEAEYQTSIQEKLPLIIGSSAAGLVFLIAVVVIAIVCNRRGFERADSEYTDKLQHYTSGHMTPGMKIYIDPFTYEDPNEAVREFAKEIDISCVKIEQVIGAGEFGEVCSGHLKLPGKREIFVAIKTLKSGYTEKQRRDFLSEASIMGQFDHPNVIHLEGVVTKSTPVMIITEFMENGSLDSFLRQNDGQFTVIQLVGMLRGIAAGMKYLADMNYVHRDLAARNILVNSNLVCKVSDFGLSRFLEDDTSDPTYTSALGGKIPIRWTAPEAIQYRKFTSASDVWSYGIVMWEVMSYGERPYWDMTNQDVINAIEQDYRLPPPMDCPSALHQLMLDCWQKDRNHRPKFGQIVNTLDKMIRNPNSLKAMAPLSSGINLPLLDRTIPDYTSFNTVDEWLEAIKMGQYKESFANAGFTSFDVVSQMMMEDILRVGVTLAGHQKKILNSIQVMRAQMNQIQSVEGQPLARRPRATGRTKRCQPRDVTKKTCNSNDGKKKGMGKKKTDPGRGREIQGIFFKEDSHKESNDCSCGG
Rule: phosphorylation enrichment under 0.5 gives No, otherwise Yes.

VNYGAYINYFK [GLB1_Y488_D491Y] | Yes
QTLTDYDTRFY [CSNK2A3_Y131_I133T] | Yes
ERRLIYTSDPK [VPS13D_Y864] | No
NSRYTYKLEVK [USH2A_Y3747] | Yes
ATARPYRPFII [LRP5_Y1528_YF] | No
SKNSKCNAEST [PSEN1_Y315_Y315C] | No

From here, focus on the item given below.
Reported phosphorylation enrichment at or above 0.5? YKIYLYTLNDN [FN1_Y1975]
Yes
